target: recombinant human XIAP-BIR3 protein (Homo sapiens); construct: recombinant human XIAP-BIR3 protein; purchased Reaction biology APT-11-374; assay: Recombinant human XIAP-BIR3 biochemical assay (HTRF, peptide displacement); details: 3.7 nM XIAP-BIR3, 7.6 nM AbuRPF-K(5-Fam)-NH2 peptide, read-out: Protein binding IC50 (nM) XIAP
Sequence (P98170 241-356 limits assumed): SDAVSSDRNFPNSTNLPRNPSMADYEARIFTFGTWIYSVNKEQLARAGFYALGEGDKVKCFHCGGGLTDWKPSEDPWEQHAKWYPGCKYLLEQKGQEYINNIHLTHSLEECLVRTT
Where a name gives a salt, the structure may show the parent alone.
Items are presented alongside their recorded IC50.
attributeMeasured: IC50 (nM)

compound: CC1COc2ncc(Cc3ccc(F)cc3)cc2N1C(=O)CN1C[C@@H](C)NC[C@@H]1CN1CCOC[C@H]1C (stereo partly drawn)
attributeMeasured: IC50
scaleUnit: nM
reported: 7.7
--
compound: C[C@@H]1CN(CC(=O)N2c3cc(Cc4ccc(F)cc4)c(C(=O)NC[C@@H]4CCOC4)nc3OC[C@@H]2C)[C@@H](CN2[C@H](C)COC[C@H]2C)CN1
attributeMeasured: IC50
scaleUnit: nM
reported: 2.3
--
compound: CC[C@H]1COc2ncc(Cc3ccc(F)cc3)cc2N1C(=O)CN1C[C@@H](C)NC[C@@H]1CN1CCOC[C@H]1C
attributeMeasured: IC50
scaleUnit: nM
reported: 14
--
compound: CCOC[C@@H]1COCCN1C[C@H]1CN[C@H](C)CN1CC(=O)N1c2cc(Cc3ccc(F)cc3)c(CO)nc2OC[C@@H]1C
attributeMeasured: IC50
scaleUnit: nM
reported: 12
--
compound: COC[C@H]1COc2nc(CO)c(Cc3ccc(F)cc3)cc2N1C(=O)CN1C[C@@H](C)NC[C@@H]1CN1[C@H](C)COC[C@H]1C
attributeMeasured: IC50
scaleUnit: nM
reported: 9.5
--
compound: C[C@@H]1CN(CC(=O)N2c3cc(Cc4ccc(F)cc4)c(CO)nc3OC[C@@H]2C)[C@@H](CN2C[C@H](C)OC[C@H]2C)CN1
attributeMeasured: IC50
scaleUnit: nM
reported: 3.6
--
compound: C[C@@H]1CN(CC(=O)N2CCOc3nc(C(N)=O)c(Cc4ccc(F)cc4)cc32)[C@@H](CN2CCOC[C@H]2C)CN1 [Compound 3, formate]
attributeMeasured: IC50
scaleUnit: nM
reported: 23
--
compound: C[C@@H]1CN(CC(=O)N2c3cc(Cc4ccc(F)cc4)cnc3OCC23CC3)[C@@H](CN2CCOC[C@H]2C)CN1 [Compound 20, hydrochloride]
attributeMeasured: IC50
scaleUnit: nM
reported: 140
--
compound: C[C@@H]1CN(CC(=O)N2c3cc(Cc4ccc(F)cc4)c(C(=O)NCCN4CCOCC4)nc3OC[C@@H]2C)C(CN2[C@H](C)COC[C@H]2C)CN1 (stereo partly drawn)
attributeMeasured: IC50
scaleUnit: nM
reported: 6.5
--
compound: C[C@@H]1CN(CC(=O)N2c3cc(Cc4ccc(F)cc4)c(C(=O)NCC4CC4)nc3OC[C@@H]2C)[C@@H](CN2[C@H](C)COC[C@H]2C)CN1
attributeMeasured: IC50
scaleUnit: nM
reported: 1.9
--
compound: C[C@@H]1CN(CC(=O)N2c3cc(Cc4ccc(F)cc4)cnc3OC[C@@H]2C)[C@@H](CN2[C@H](C)COC[C@H]2C)CN1
attributeMeasured: IC50
scaleUnit: nM
reported: 3.97
--
compound: CC(C)OC[C@@H]1COCCN1C[C@H]1CN[C@H](C)CN1CC(=O)N1c2cc(Cc3ccc(F)cc3)c(CO)nc2OC[C@@H]1C
attributeMeasured: IC50
scaleUnit: nM
reported: 7.8
--
compound: C[C@@H]1CN(CC(=O)N2c3cc(Cc4ccc(F)cc4)c(C(=O)NCC4CCN(C)CC4)nc3OC[C@@H]2C)[C@@H](CN2[C@H](C)COC[C@H]2C)CN1
attributeMeasured: IC50
scaleUnit: nM
reported: 8.2
--
compound: C[C@@H]1CN(CC(=O)N2c3cc(Cc4ccc(F)cc4)c(OCCN4CCOCC4)nc3OC[C@@H]2C)[C@@H](CN2[C@H](C)COC[C@H]2C)CN1
attributeMeasured: IC50
scaleUnit: nM
reported: 3.8
--
compound: C[C@@H]1CN(CC(=O)N2CCOc3ncc(Cc4ccc(F)cc4)cc32)[C@@H](CN2C[C@H]3C[C@@H]2CO3)CN1
attributeMeasured: IC50
scaleUnit: nM
reported: 122
--
compound: CCS(=O)(=O)Nc1nc2c(cc1Cc1ccc(F)cc1)N(C(=O)CN1C[C@@H](C)NC[C@@H]1CN1[C@H](C)COC[C@H]1C)[C@@H](C)CO2
attributeMeasured: IC50
scaleUnit: nM
reported: 2.9
--
compound: CC[C@@H]1COCCN1C[C@H]1CN[C@H](C)CN1CC(=O)N1c2cc(Cc3ccc(F)cc3)c(CO)nc2OC[C@@H]1C
attributeMeasured: IC50
scaleUnit: nM
reported: 9.2
--
compound: C[C@@H]1CN(CC(=O)N2c3cc(Cc4ccc(F)cc4)c(C(N)=O)nc3OC[C@@H]2C)[C@@H](CN2[C@H](C)COC[C@H]2C)CN1
attributeMeasured: IC50
scaleUnit: nM
reported: 5.8
--
compound: CC(C)NC(=O)c1nc2c(cc1Cc1ccc(F)cc1)N(C(=O)CN1C[C@@H](C)NC[C@@H]1CN1[C@H](C)COC[C@H]1C)[C@@H](C)CO2
attributeMeasured: IC50
scaleUnit: nM
reported: 3.7
--
compound: C[C@@H]1CN(CC(=O)N2c3cc(Cc4ccc(F)cc4)cnc3OC[C@@H]2COCc2ccccc2)[C@@H](CN2[C@H](C)COC[C@H]2C)CN1
attributeMeasured: IC50
scaleUnit: nM
reported: 6.9
--
compound: C[C@@H]1CN(CC(=O)N2CCOc3nc(C4(O)CC4)c(Cc4ccc(F)cc4)cc32)[C@@H](CN2CCOC[C@H]2C)CN1
attributeMeasured: IC50
scaleUnit: nM
reported: 41
--
compound: CC(C)[C@H]1COc2ncc(Cc3ccc(F)cc3)cc2N1C(=O)CN1C[C@@H](C)NC[C@@H]1CN1CCOC[C@H]1C
attributeMeasured: IC50
scaleUnit: nM
reported: 84
--
compound: CC(C)OC[C@H]1COc2ncc(Cc3ccc(F)cc3)cc2N1C(=O)CN1C[C@@H](C)NC[C@@H]1CN1[C@H](C)COC[C@H]1C
attributeMeasured: IC50
scaleUnit: nM
reported: 28
--
compound: C[C@@H]1CN(CC(=O)N2c3cc(Cc4ccc(F)cc4)c(CO)nc3OC[C@@H]2C)[C@@H](CN2[C@H](C)CN(C)C[C@H]2C)CN1
attributeMeasured: IC50
scaleUnit: nM
reported: 11.3

Entry source: patent US12583866B2
